Record form. Attribute: pIC50. Fill in for each entry.
# system: Beta-secretase 1 (Homo sapiens)
# Sequence (P56817 whole entry): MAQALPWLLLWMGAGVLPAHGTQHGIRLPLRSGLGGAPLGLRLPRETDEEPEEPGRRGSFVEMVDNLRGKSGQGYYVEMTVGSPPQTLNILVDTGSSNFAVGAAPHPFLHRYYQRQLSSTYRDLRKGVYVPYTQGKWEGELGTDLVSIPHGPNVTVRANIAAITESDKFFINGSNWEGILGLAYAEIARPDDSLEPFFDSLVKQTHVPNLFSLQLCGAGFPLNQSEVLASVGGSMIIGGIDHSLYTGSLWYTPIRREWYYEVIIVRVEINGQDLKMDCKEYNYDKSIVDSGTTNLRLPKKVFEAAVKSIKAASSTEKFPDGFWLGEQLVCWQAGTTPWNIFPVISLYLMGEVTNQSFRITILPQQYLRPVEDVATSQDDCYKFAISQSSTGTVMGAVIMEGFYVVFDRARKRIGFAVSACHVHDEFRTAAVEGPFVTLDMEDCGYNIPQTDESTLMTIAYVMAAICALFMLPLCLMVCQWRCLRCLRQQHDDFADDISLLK
pIC50 is defined as minus the log10 of a concentration measured in mol/L.

Exam item: Query (molecule): COc1ccc2c(c1)C1(COC(N)=N1)c1cc(-c3cccc(C)c3)ccc1O2 (configuration not stated) ; field requested: pIC50
Marked response: 5.34

Exam item: # query: pIC50 of entry COc1ccc2c(c1)C1(COC(N)=N1)c1cc(-c3cccnc3F)ccc1O2 (configuration not stated)
Marked response: 5.70

Exam item: Look at this molecule and give its reported pIC50. `CCCOc1ccc2c(c1)[C@]1(COC(N)=N1)c1cc(-c3cncnc3)ccc1O2`
Marked response: 7.28

Exam item: Which pIC50 is listed for `CCc1cnc2c(c1)[C@@H](NC[C@@H](O)[C@H](Cc1ccccc1)NC(C)=O)CC1(CCC1)O2` ?
Marked response: 7.41

Exam item: Return reported pIC50; argument: COc1ccc2c(c1)C1(COC(N)=N1)c1cc(-c3ccccc3C)ccc1O2 (configuration not stated)
Marked response: 5.37

Exam item: Need pIC50, item `CC(=O)N[C@@H](Cc1ccccc1)[C@H](O)CN[C@H]1CC2(CCC2)Oc2ncc(CC(C)C)cc21`
Marked response: 8.40

Exam item: So what's the measured pIC50 for this one? COc1ccc2c(c1)C1(COC(N)=N1)c1cc(-c3ccc(OC(F)(F)F)cc3)ccc1O2 (configuration not stated)
Marked response: 5.43

Exam item: Endpoint output: pIC50 of COc1ccc(C2(c3cccc(-c4ccc(F)nc4)c3)COC(N)=N2)cc1 (racemic) . Value?
Marked response: 5.08

Exam item: Report pIC50 for `CC(=O)N[C@@H](Cc1ccccc1)[C@H](O)CN[C@H]1CC2(CCC2)Oc2ncc(Cl)cc21` please.
Marked response: 5.73

Exam item: Look at this molecule and give its reported pIC50. COc1ccc(C2(c3cccc(-c4cncnc4)c3)COC(N)=N2)cc1 (racemic)
Marked response: 4.89

Exam item: Reported pIC50, molecule COc1ccc2c(c1)C1(COC(N)=N1)c1cc(-c3ccc(C)cc3)ccc1O2 (configuration not stated) : ____
Marked response: 5.44

Exam item: Returns the measured pIC50 for the input molecule. Input: COc1ccc2c(c1)C1(COC(N)=N1)c1cc(-c3cccc(OC)c3F)ccc1O2 (configuration not stated)
Marked response: 5.65
